Target: T1, human IL-17F (human, UniProt Q96PD4 31-163)
T1 construct: made in Hek293 cells (GenBank AF384857); also called hIL-17F; hIL17F
T1 sequence: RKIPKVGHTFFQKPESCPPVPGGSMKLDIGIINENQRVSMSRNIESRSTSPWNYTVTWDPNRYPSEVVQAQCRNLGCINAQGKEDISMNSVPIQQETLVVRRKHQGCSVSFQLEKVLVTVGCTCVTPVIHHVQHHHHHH
Test: AlphaScreen hIL-17F-IL-17RC; vs IL17MS13E02
readout: IC50 fold difference vs WT (fold)
Report the figure in fold without appending any unit label.

IL17MS3019 (VHH, variant of IL17MS13E02; Kabat numbering) VHH: EVQLVESGGGLVQPGGSLRLSCAASGRTYDAMGWFRQAPGKEREFVAAISGSGDDTYYADSVKGRFTISKDNSGITMYLQMNSLRPEDTAVYYCATRRGLYYVWDSNDYENWGQGTLVTVSS :: 4.6
IL17MS3037 (VHH, variant of IL17MS13E02; Kabat numbering) VHH: EVQLVESGGGLVQAGGSLRLSCAASGRTYDAMGWLRQAPGKEREFVAAISGSGDDTYYADSVKGRFTISKDNAGITMYLQMNSLKPEDTAVYYCATRRGLYYVWDANDYENWGQGTQVTVSS :: 1
IL17MS3027 (VHH, variant of IL17MS13E02; Kabat numbering) VHH: EVQLVESGGGLVQPGGSLRLSCAASGRTYDAMGWLRQAPGKEREFVAAISGSGDDTYYADSVKGRFTISRDNSGNTMYLQMNSLRPEDTAVYYCATRRGLYYVWDSNDYENWGQGTLVTVSS :: 0.6
IL17MS3018 (VHH, basic variant of IL17MS13E02; Kabat numbering; also called IL17MS3018 basic) VHH: EVQLVESGGGLVQPGGSLRLSCAASGRTYDAMGWLRQAPGKEREFVAAISGSGDDTYYADSVKGRFTISKDNSGITMYLQMNSLRPEDTAVYYCATRRGLYYVWDSNDYENWGQGTLVTVSS :: 0.8
IL17MS3032 (VHH, variant of IL17MS13E02; Kabat numbering) VHH: EVQLVESGGGLVQPGGSLRLSCAASGRTYDAMGWLRQAPGKEREFVAAISGSGDDTYYADSVKGRFTISRDNSKNTMYLQMNSLRPEDTAVYYCATRRGLYYVWDSNDYENWGQGTLVTVSS :: 0.5
IL17MS3038 (VHH, variant of IL17MS13E02; Kabat numbering) VHH: EVQLVESGGGLVQAGGSLRLSCAASGRTYDAVGWLRQAPGKEREFVAAISGSGDDTYYADSVKGRFTISKDNAGITMYLQMNSLKPEDTAVYYCATRRGLYYVWDSNDYENWGQGTQVTVSS :: 3.2

Request the reported IC50 fold difference vs WT associated with IL17MS3035 (VHH, variant of IL17MS13E02; Kabat numbering) VHH: EVQLVESGGGLVQAGGSLRLSCAASGRTYDAMGWLRQAPGKEREFVAAISGSGDDTYYADSVKGRFTISKDNAGITLYLQMNSLKPEDTAVYYCATRRGLYYVWDSNDYENWGQGTQVTVSS
1.22

Request the reported IC50 fold difference vs WT associated with IL17MS3020 (VHH, variant of IL17MS13E02; Kabat numbering) VHH: EVQLVESGGGLVQPGGSLRLSCAASGRTYDAMGWLRQAPGKEREFVAAISGSGDDTYYADSVKGRFTISRDNSGITMYLQMNSLRPEDTAVYYCATRRGLYYVWDSNDYENWGQGTLVTVSS
1.3

Request the reported IC50 fold difference vs WT associated with IL17MS3036 (VHH, variant of IL17MS13E02; Kabat numbering) VHH: EVQLVESGGGLVQAGGSLRLSCAASGRTYDAMGWLRQAPGKEREFVAAISGSGDDTYYADSVKGRFTISKDNAGITMYLQMNSLKPEDTAVYYCATRRGLYYVWDTNDYENWGQGTQVTVSS
2.2

Request the reported IC50 fold difference vs WT associated with IL17MS3039 (VHH, variant of IL17MS13E02; Kabat numbering) VHH: EVQLVESGGGLVQAGGSLRLSCAASGRTYDAMGWLRQAPGKEREFVAAISGSGDDTYYADSVKGRFTISKDNAGITVYLQMNSLKPEDTAVYYCATRRGLYYVWDSNDYENWGQGTQVTVSS
1.25

Request the reported IC50 fold difference vs WT associated with IL17MS3034 (VHH, variant of IL17MS13E02; Kabat numbering) VHH: EVQLVESGGGLVQAGGSLRLSCAASGRTYDALGWLRQAPGKEREFVAAISGSGDDTYYADSVKGRFTISKDNAGITMYLQMNSLKPEDTAVYYCATRRGLYYVWDSNDYENWGQGTQVTVSS
2.7

Request the reported IC50 fold difference vs WT associated with IL17MS3021 (VHH, variant of IL17MS13E02; Kabat numbering) VHH: EVQLVESGGGLVQPGGSLRLSCAASGRTYDAMGWLRQAPGKEREFVAAISGSGDDTYYADSVKGRFTISKDNSKITMYLQMNSLRPEDTAVYYCATRRGLYYVWDSNDYENWGQGTLVTVSS
0.9

Request the reported IC50 fold difference vs WT associated with IL17MS3022 (VHH, variant of IL17MS13E02; Kabat numbering) VHH: EVQLVESGGGLVQPGGSLRLSCAASGRTYDAMGWLRQAPGKEREFVAAISGSGDDTYYADSVKGRFTISKDNSGNTMYLQMNSLRPEDTAVYYCATRRGLYYVWDSNDYENWGQGTLVTVSS
0.9

Cited source: patent US20210130452A1
